- system under test: CDK2-CYCLINA (Homo sapiens, UniProt P24941)
- Construct: purchased Millipore
- experiment summary: CDK inhibition assay (microfluidic LabChip, IC50 format)
- Type: biochemical
- experimental setup: Table 3; purified enantiomers; read-out: CDK2-A (E1/E2)
measure name: IC50 (µM)
Enter your answer as a number in µM; do not include the unit.

smi=CN1CCN(c2ccc(Nc3ncc4c(n3)N(C3CCCC3)C(=O)[C@]3(CCNC3=O)C4)cc2F)CC1 measure_name=IC50 recorded_measurement=0.0531
smi=CC(C)N1CCN(c2ccc(Nc3ncc4c(n3)N(C3CCCC3)C(=O)[C@@]3(CCNC3=O)C4)cc2F)CC1 measure_name=IC50 recorded_measurement=9.67
smi=O=C1NCC[C@@]12Cc1cnc(Nc3ccc(N4CCNCC4)cn3)nc1N(C1CCCC1)C2=O measure_name=IC50 recorded_measurement=3.12
smi=O=C1NCC[C@]12Cc1cnc(Nc3ccc(N4CCNCC4)cc3)nc1N(C1CCCC1)C2=O measure_name=IC50 recorded_measurement=6
smi=CN1CCN(c2ccc(Nc3ncc4c(n3)N(C3CCCC3)C(=O)[C@@]3(CCNC3=O)C4)cc2F)CC1 measure_name=IC50 recorded_measurement=5.94
smi=CC(C)N1CCN(c2ccc(Nc3ncc4c(n3)N(C3CCCC3)C(=O)[C@]3(CCNC3=O)C4)cc2F)CC1 measure_name=IC50 recorded_measurement=0.0456

Documented IC50 of `O=C1NCC[C@@]12Cc1cnc(Nc3ccc(N4CCNCC4)cc3)nc1N(C1CCCC1)C2=O` : 0.0482

Documented IC50 of `O=C1NCC[C@@]12Cc1cnc(Nc3ccc(N4CCNCC4)c(F)c3)nc1N(C1CCCC1)C2=O` : 0.0291

Documented IC50 of `O=C1NCC[C@]12Cc1cnc(Nc3ccc(N4CCNCC4)c(F)c3)nc1N(C1CCCC1)C2=O` : 3.41
